The reported measurements were obtained from patent US20090304692A1.

Molecular target: Human mTOR (FLAG-TOR) (Homo sapiens)
Assay: mTOR kinase assay (DELFIA format, purified enzyme)
Type: biochemical
Details: read-out: IC50 mTOR
pIC50: −log10 of the molar value.
Test Readout: pIC50

Please review the following examples before continuing.
Data request: Fill in: pIC50 of CC(=O)NC1CCN(c2nc(-c3ccc(NC(=O)Nc4ccncc4)cc3)nc(N3CCOCC3)n2)CC1 [Example 658] is ___
Data returned: 7.70

Data request: Suppose we examine the molecule CNC(=O)Nc1ccc(-c2nc(-c3ccc(NC(=O)Nc4cccc(C(N)=O)c4)cc3)nc(N3CC4CCC(C3)O4)n2)cc1 [Example 465] ; what pIC50 value has been reported?
Data returned: 9.00

Data request: Requested read-out: pIC50. Entry: CN(C)CCNC(=O)c1ccc(NC(=O)Nc2ccc(-c3nc(N4CCOCC4)nc(N4C5CCC4COC5)n3)cc2)cc1 [Example 694]
Data returned: 9.61

Data request: Requested read-out: pIC50. Entry: CC(C)N1CCN(c2ccc(NC(=O)Nc3ccc(-c4nc(C5CCOCC5)nc(N5CCOC[C@H]5C)n4)cc3)cc2)CC1 [Example 429]
Data returned: 8.72

a. CN(C)C1CCN(C(=O)c2ccc(NC(=O)Nc3ccc(-c4nc(-c5cccs5)nc(N5CCOCC5)n4)cc3)cc2)CC1 [Example 568]
b. CC(C)c1nc(-c2ccc(NC(=O)Nc3ccc(C(=O)N(C)CCN(C)C)cc3)cc2)nc(N2CCOCC2)n1 [Example 306]
Data request: Hello, I am sorting some records. Could you say if a or b has the smaller pIC50 value? Which one? Tell me its label.
Data returned: a

---

Target: PI3K-α (Homo sapiens, UniProt P42336)
Sequence (P42336 whole entry, species assumed): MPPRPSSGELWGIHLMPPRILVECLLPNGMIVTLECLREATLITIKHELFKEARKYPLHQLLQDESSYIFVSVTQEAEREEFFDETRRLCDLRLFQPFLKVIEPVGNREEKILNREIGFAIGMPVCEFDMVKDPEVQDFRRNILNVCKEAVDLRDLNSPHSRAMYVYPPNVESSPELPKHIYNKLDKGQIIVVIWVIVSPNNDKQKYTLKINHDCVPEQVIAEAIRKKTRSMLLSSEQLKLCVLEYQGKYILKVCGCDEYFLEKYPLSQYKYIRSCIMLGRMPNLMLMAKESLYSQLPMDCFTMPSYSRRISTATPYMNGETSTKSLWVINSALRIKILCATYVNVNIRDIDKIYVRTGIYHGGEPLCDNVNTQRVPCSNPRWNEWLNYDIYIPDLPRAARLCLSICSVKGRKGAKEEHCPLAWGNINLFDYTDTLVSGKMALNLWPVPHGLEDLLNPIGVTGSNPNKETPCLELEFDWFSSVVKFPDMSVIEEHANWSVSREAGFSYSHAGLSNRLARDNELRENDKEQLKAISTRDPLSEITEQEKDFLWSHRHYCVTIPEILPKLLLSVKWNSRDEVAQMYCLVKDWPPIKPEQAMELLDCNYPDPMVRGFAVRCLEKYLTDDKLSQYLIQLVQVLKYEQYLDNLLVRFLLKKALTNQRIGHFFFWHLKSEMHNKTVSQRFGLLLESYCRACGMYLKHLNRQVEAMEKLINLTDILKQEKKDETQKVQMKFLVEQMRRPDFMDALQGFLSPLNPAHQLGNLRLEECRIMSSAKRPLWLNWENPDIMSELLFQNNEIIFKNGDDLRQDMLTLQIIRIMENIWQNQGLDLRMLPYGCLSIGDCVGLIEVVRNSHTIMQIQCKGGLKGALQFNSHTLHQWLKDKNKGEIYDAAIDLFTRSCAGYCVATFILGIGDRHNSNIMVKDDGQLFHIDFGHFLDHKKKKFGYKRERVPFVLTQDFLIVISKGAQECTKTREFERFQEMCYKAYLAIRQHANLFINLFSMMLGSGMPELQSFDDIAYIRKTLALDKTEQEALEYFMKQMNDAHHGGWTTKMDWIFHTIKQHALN
Sequence (P27986 whole entry partner, species assumed): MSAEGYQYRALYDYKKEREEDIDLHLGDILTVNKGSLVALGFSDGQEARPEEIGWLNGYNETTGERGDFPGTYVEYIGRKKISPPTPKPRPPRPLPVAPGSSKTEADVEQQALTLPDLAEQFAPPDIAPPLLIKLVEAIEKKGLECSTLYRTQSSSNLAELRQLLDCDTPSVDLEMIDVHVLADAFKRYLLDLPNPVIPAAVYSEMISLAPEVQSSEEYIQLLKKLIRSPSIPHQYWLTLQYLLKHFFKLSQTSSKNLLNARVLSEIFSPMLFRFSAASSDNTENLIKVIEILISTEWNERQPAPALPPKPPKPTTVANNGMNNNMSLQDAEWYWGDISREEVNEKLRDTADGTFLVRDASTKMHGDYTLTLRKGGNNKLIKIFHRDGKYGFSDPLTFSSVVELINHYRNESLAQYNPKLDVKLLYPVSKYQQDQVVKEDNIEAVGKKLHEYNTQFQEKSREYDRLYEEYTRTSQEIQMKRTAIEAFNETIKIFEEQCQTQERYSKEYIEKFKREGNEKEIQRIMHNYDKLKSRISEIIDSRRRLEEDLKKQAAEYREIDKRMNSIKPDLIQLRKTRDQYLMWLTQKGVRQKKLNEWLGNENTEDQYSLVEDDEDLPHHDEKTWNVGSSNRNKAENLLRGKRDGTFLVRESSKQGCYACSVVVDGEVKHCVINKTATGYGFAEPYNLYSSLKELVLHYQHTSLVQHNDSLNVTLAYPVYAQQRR
Test: PI3K-alpha fluorescence polarization assay
Details: read-out: IC50 PI3Kα; listed as 706
Test Readout: IC50 (nM)
Give the number; nM is assumed, so skip it.

Data request: Item "O=C(Nc1ccc(-c2nc(N3CCOCC3)nc(N3CCC4(CC3)OCCO4)n2)cc1)Nc1cccnc1" has what recorded IC50?
Data returned: 25.5

---

Target: Human mTOR (FLAG-TOR) (Homo sapiens, UniProt P42345)
Sequence (P42345 1360-2549 limits assumed): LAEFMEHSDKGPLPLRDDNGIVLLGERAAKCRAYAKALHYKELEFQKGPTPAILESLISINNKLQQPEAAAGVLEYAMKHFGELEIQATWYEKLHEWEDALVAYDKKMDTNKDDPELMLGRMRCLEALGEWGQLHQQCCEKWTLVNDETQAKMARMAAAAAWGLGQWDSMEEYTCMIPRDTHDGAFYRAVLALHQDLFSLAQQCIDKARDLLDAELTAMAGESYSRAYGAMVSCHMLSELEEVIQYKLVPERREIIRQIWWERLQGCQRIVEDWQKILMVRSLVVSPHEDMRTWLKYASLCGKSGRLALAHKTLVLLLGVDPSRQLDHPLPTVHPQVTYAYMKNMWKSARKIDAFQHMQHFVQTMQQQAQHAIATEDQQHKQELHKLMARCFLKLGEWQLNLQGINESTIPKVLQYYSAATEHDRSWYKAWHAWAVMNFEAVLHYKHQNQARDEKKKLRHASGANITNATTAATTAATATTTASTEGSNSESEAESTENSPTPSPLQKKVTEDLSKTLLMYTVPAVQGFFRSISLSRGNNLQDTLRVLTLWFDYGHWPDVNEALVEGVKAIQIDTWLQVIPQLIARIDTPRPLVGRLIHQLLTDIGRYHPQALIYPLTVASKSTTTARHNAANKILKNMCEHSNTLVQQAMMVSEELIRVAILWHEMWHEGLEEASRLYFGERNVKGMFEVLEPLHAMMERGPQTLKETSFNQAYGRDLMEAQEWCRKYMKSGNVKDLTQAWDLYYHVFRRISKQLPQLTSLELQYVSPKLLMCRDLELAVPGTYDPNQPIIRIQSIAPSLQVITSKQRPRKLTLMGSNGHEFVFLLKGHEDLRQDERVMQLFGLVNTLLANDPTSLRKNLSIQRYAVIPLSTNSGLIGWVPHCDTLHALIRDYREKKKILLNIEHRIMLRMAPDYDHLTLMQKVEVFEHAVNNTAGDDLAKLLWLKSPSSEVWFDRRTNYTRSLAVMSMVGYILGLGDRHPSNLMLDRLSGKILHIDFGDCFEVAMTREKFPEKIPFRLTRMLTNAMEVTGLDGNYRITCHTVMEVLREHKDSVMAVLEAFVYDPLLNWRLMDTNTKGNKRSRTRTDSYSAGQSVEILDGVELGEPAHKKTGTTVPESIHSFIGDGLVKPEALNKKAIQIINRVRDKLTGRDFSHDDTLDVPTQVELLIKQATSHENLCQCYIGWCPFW
Assay: mTOR kinase assay (DELFIA format, purified enzyme)
Type: biochemical
Settings: read-out: IC50 mTOR
Structures can show the parent of a compound that is named as a salt.
Test Readout: IC50 (nM)

Data request: Dear colleague, I am looking for the recorded IC50 of the following compound: "O=C(Nc1ccc(-c2nc(N3CCOCC3)nc(N3C4CCC3COC4)n2)cc1)Nc1ccc(Cl)nc1"
Data returned: 2

Data request: Need IC50 of "C[C@@H]1COCCN1c1nc(-c2ccc(NC(=O)Nc3ccc(OCCN(C)C)cc3)cc2)nc(N2CCOC[C@H]2C)n1" , thanks.
Data returned: 1.8

Data request: Sample "O=C(O)CNC1CCN(c2nc(-c3ccc(NC(=O)Nc4ccncc4)cc3)nc(N3CC4CCC(C3)O4)n2)CC1" — what was its IC50?
Data returned: 31

P. CCN1CCN(C(=O)c2ccc(NC(=O)Nc3ccc(-c4nc(N5CCOC[C@@H]5C)nc(N5CCOC[C@@H]5C)n4)cc3)cc2)CC1
Q. CCCCc1nc(-c2ccc(NC(=O)Nc3ccc(CO)cc3)cc2)nc(N2CCOCC2)n1
Data request: Looking only at measured IC50, which entry is lower, P or Q ? Respond with the label that goes with your answer.
Data returned: P
(P: 1 nM, Q: 3.2 nM)

a. CN1CCN(C(=O)c2ccc(NC(=O)Nc3ccc(-c4nc(N5CCOCC5)nc(N5CCOCC5)n4)cc3)cc2)CC1 [Example 69, hydrochloride]
b. C[C@@H]1COCCN1c1nc(-c2ccc(NC(=O)Nc3ccncc3)cc2)nc(N2CCOC[C@H]2C)n1
c. CC(C)(C)OC(=O)N1CC2CN(c3nc(-c4ccc(NC(=O)Nc5ccncc5)cc4)nc(N4CCOCC4)n3)CC(C1)O2
d. O=C(Nc1ccc(-c2nc(OCCN3CCCCC3)nc(N3CC4CCC(C3)O4)n2)cc1)Nc1cccnc1
e. COC(=O)CNC1CCN(c2nc(-c3ccc(NC(=O)Nc4ccncc4)cc3)nc(N3CC4CCC(C3)O4)n2)CC1
Data request: Reorder: IC50, max to min. Reply with the labels, ordered as the question asks.
Data returned: c, d, e, a, b

A. C[C@H]1COCCN1c1nc(-c2ccc(NC(=O)Nc3ccc(C(=O)N(C)CCN(C)C)cc3)cc2)nc(N2CCOC[C@@H]2C)n1
B. CN1CCN(C(=O)c2ccc(NC(=O)Nc3ccc(-c4nc(N5CCCOCC5)nc(N5CCOCC5)n4)cc3)cc2)CC1
C. O=C(Nc1ccc(C(=O)N2CCNCC2)cc1)Nc1ccc(-c2nc(N3CCOCC3)nc(N3CCOCC3)n2)cc1
Data request: List by increasing IC50. Lab note: final answer is the ordered label list.
Data returned: C, A, B
(C: 0.68 nM, A: 1 nM, B: 4 nM)

---

Target: PI3K-α (Homo sapiens)
Test: PI3K-alpha fluorescence polarization assay
Settings: read-out: IC50 PI3Kα
pIC50: −log10 of the molar value.
Test Readout: pIC50

Known results for compounds:
Data request: Using the record for "O=C(Nc1ccc(C(=O)N2CCC(N3CCCCC3)CC2)cc1)Nc1ccc(-c2nc(N3CCOCC3)nc(N3CCOCC3)n2)cc1" , report its pIC50.
Data returned: 9.22

Data request: Requested field: pIC50. Item: "O=C(Nc1ccc(-c2nc(N3CCOCC3)nc(N3C4CCC3COC4)n2)cc1)Nc1ccnc(-c2cccnc2)c1"
Data returned: 7.40

A. Cc1nc(-c2ccc(NC(=O)Nc3ccc(C(=O)N4CCN(C)CC4)cc3)cc2)nc(N2CCOCC2)n1
B. CC(C)N1CCN(C(=O)c2ccc(NC(=O)Nc3ccc(-c4nc(N5CCOCC5)nc(N5CCOCC5)n4)cc3)cc2)CC1
Data request: Hi! Which is lower in terms of pIC50, the first one A or the second one B ? Identify your pick by its label.
Data returned: A

---

Target: PI3K-α (Homo sapiens)
Experiment: PI3K-alpha fluorescence polarization assay
Details: read-out: IC50 PI3Kα; listed as 732
Test Readout: pIC50
The read-out pIC50 is expressed as -log10 of concentration in moles per litre.

Data request: Fill blank: measured pIC50 of the molecule CC(C)NCCCc1nc(-c2ccc(NC(=O)Nc3ccncc3)cc2)nc(N2CCOCC2)n1 [Example 275] is ____.
Data returned: 7.36

---

Molecular target: PI3K-α (Homo sapiens, UniProt P42336)
Test: PI3K-alpha fluorescence polarization assay
Settings: read-out: IC50 PI3Kα
Test Readout: IC50 (nM)

Some compounds with recorded IC50:
Data request: API: value(readout= IC50, system= PI3K-α (Homo sapiens, UniProt P42336), query= "O=C(Nc1ccc(-c2nc(N3CCSCC3)nc(N3C4CCC3COC4)n2)cc1)Nc1cccnc1" )
Data returned: 1180

Data request: Give IC50 (PI3K-α (Homo sapiens, UniProt P42336)) of the following compound: "CC(C)CN1CCN(C(=O)c2ccc(NC(=O)Nc3ccc(-c4nc(N5CCOC[C@@H]5C)nc(N5CCOC[C@@H]5C)n4)cc3)cc2)CC1"
Data returned: 28

Data request: Kindly state the measured IC50 obtained for "CCCCc1nc(-c2ccc(NC(=O)Nc3ccc(C(=O)NC4CCN(C)CC4)cc3)cc2)nc(N2CCOCC2)n1" with PI3K-α (Homo sapiens, UniProt P42336).
Data returned: 5

Data request: Can you look up IC50 on PI3K-α (Homo sapiens, UniProt P42336) for "O=C1CCN(c2nc(-c3ccc(NC(=O)Nc4ccncc4)cc3)nc(N3CC4CCC(C3)O4)n2)CC1" ?
Data returned: 109

Data request: Given the entry "CN(C)CCOc1ccc(NC(=O)Nc2ccc(-c3nc(N4CCOCC4)nc(N4C5CCC4COC5)n3)cc2)cc1" , what IC50 was observed with PI3K-α (Homo sapiens, UniProt P42336)?
Data returned: 16

I. CC(C)Oc1nc(-c2ccc(NC(=O)Nc3ccc(N4CCN(C)CC4)cc3)cc2)nc(N2CC3CCC(C2)O3)n1
II. C[C@@H]1COCCN1c1nc(-c2ccc(NC(=O)Nc3ccc(CN4CCCC4)cc3)cc2)nc(N2C[C@@H]3C[C@H]2CO3)n1
Data request: Lower value of IC50 belongs to which: I or II ? Returns: label corresponding to the selected item.
Data returned: I

---

Biological target: Human mTOR (FLAG-TOR) (Homo sapiens)
Assay: mTOR kinase assay (DELFIA format, purified enzyme)
Format: biochemical
Details: read-out: IC50 mTOR
Test Readout: IC50 (µM)

Look over these answered cases.
Data request: Field: IC50 (Human mTOR (FLAG-TOR) (Homo sapiens)). Entry: CC(=O)NC1CCN(c2nc(-c3ccc(NC(=O)Nc4ccc(C(=O)O)cc4)cc3)nc(N3CCOCC3)n2)CC1 [Example 659]
Data returned: 0.72

Data request: For Human mTOR (FLAG-TOR) (Homo sapiens), provide IC50 of O=C(Nc1ccccc1)Nc1ccc(-c2nc(NC3CNC3)nc(N3CCOCC3)n2)cc1 [Example 17] please.
Data returned: 0.014

Data request: Form field: IC50 recorded for C[C@H]1COCCN1c1nc(-c2ccc(NC(=O)Nc3ccc(C(=O)O)cc3)cc2)nc(N2C3CCC2COC3)n1 [Example 832] with Human mTOR (FLAG-TOR) (Homo sapiens) (enter value)
Data returned: 0.165

Data request: Form entry - test system: Human mTOR (FLAG-TOR) (Homo sapiens); read-out: IC50; compound: CC(C)c1nc(-c2ccc(NC(=O)Nc3ccc(-c4cncnc4)cc3)cc2)nc(N2CCOCC2)n1 [Example 487]
Data returned: 0.0018

Data request: Recall the recorded IC50 for CC(=O)NC1CCN(C(=O)c2ccc(NC(=O)Nc3ccc(-c4nc(N5CCOCC5)nc(N5CCCN(C(C)C)CC5)n4)cc3)cc2)CC1 [Example 661] with Human mTOR (FLAG-TOR) (Homo sapiens) and state it.
Data returned: 0.58

1. C[C@H]1COCCN1c1nc(-c2ccc(NC(=O)Nc3ccc(C(=O)O)cc3)cc2)nc(N2CCOCC2)n1 [Example 619]
2. CC(C)c1nc(-c2ccc(NC(=O)Nc3ccc(-c4ccncc4)cc3)cc2)nc(N2CCOCC2)n1 [Example 489]
Data request: Between the entries labelled 1 and 2 , which has a larger IC50 value on record? Select an item and report its label.
Data returned: 2
